test system: HeLa Kyoto; test: solubility change mitosis vs G1/S (difference of NP-40 vs SDS log2 ratios) (log2 ratio difference); higher = more soluble in mitosis;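 further: synchronized HeLa Kyoto cells (double thymidine block for G1/S, nocodazole release for mitosis), protein amounts in NP-40 versus SDS lysates quantified by mass spectrometry, three biological replicates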

SEQUENCE TEXT: MAQKENSYPWPYGRQTAPSGLSTLPQRVLRKEPVTPSALVLMSRSNVQPTAAPGQKVMENSSGTPDILTRHFTIDDFEIGRPLGKGKFGNVYLAREKKSHFIVALKVLFKSQIEKEGVEHQLRREIEIQAHLHHPNILRLYNYFYDRRRIYLILEYAPRGELYKELQKSCTFDEQRTATIMEELADALMYCHGKKVIHRDIKPENLLLGLKGELKIADFGWSVHAPSLRRKTMCGTLDYLPPEMIEGRMHNEKVDLWCIGVLCYELLVGNPPFESASHNETYRRIVKVDLKFPASVPMGAQDLISKLLRHNPSERLPLAQVSAHPWVRANSRRVLPPSALQSVA [AURKB]
solubility change mitosis (log2): -0.11
--
SEQUENCE TEXT: MGQIEWAMWANEQALASGLILITGGIVATAGRFTQWYFGAYSIVAGVFVCLLEYPRGKRKKGSTMERWGQKYMTAVVKLFGPFTRNYYVRAVLHLLLSVPAGFLLATILGTACLAIASGIYLLAAVRGEQWTPIEPKPRERPQIGGTIKQPPSNPPPRPPAEARKKPSEEEAAVAAGGPPGGPQVNPIPVTDEVV [CYBA]
solubility change mitosis (log2): -0.167
--
SEQUENCE TEXT: MGEPQGSMRILVTGGSGLVGKAIQKVVADGAGLPGEDWVFVSSKDADLTDTAQTRALFEKVQPTHVIHLAAMVGGLFRNIKYNLDFWRKNVHMNDNVLHSAFEVGARKVVSCLSTCIFPDKTTYPIDETMIHNGPPHNSNFGYSYAKRMIDVQNRAYFQQYGCTFTAVIPTNVFGPHDNFNIEDGHVLPGLIHKVHLAKSSGSALTVWGTGNPRRQFIYSLDLAQLFIWVLREYNEVEPIILSVGEEDEVSIKEAAEAVVEAMDFHGEVTFDTTKSDGQFKKTASNSKLRTYLPDFRFTPFKQAVKETCAWFTDNYEQARK [TSTA3]
solubility change mitosis (log2): -0.116
--
SEQUENCE TEXT: MASLLAKDAYLQSLAKKICSHSAPEQQARTRAGKTQGSETAGPPKKKRKKTQKKFRKREEKAAEHKAKSLGEKSPAASGARRPEAAKEEAAWASSSAGNPADGLATEPESVFALDVLRQRLHEKIQEARGQGSAKELSPAALEKRRRRKQERDRKKRKRKELRAKEKARKAEEATEAQEVVEATPEGACTEPREPPGLIFNKVEVSEDEPASKAQRRKEKRQRVKGNLTPLTGRNYRQLLERLQARQSRLDELRGQDEGKAQELEAKMKWTNLLYKAEGVKIRDDERLLQEALKRKEKRRAQRQRRWEKRTAGVVEKMQQRQDRRRQNLRRKKAARAERRLLRARKKGRILPQDLERAGLV [SURF6]
solubility change mitosis (log2): 1.25
--
SEQUENCE TEXT: MAEKVLVTGGAGYIGSHTVLELLEAGYLPVVIDNFHNAFRGGGSLPESLRRVQELTGRSVEFEEMDILDQGALQRLFKKYSFMAVIHFAGLKAVGESVQKPLDYYRVNLTGTIQLLEIMKAHGVKNLVFSSSATVYGNPQYLPLDEAHPTGGCTNPYGKSKFFIEEMIRDLCQADKTWNAVLLRYFNPTGAHASGCIGEDPQGIPNNLMPYVSQVAIGRREALNVFGNDYDTEDGTGVRDYIHVVDLAKGHIAALRKLKEQCGCRIYNLGTGTGYSVLQMVQAMEKASGKKIPYKVVARREGDVAACYANPSLAQEELGWTAALGLDRMCEDLWRWQKQNPSGFGTQA [GALE]
solubility change mitosis (log2): -0.146
--
SEQUENCE TEXT: MSHTEVKLKIPFGNKLLDAVCLVPNKSLTYGIILTHGASGDMNLPHLMSLASHLASHGFFCLRFTCKGLNIVHRIKAYKSVLNYLKTSGEYKLAGVFLGGRSMGSRAAASVMCHIEPDDGDDFVRGLICISYPLHHPKQQHKLRDEDLFRLKEPVLFVSGSADEMCEKNLLEKVAQKMQAPHKIHWIEKANHSMAVKGRSTNDVFKEINTQILFWIQEITEMDKKCH [TEX30]
solubility change mitosis (log2): -0.146
--
SEQUENCE TEXT: MSGWADERGGEGDGRIYVGNLPTDVREKDLEDLFYKYGRIREIELKNRHGLVPFAFVRFEDPRDAEDAIYGRNGYDYGQCRLRVEFPRTYGGRGGWPRGGRNGPPTRRSDFRVLVSGLPPSGSWQDLKDHMREAGDVCYADVQKDGVGMVEYLRKEDMEYALRKLDDTKFRSHEGETSYIRVYPERSTSYGYSRSRSGSRGRDSPYQSRGSPHYFSPFRPY [SRSF9]
solubility change mitosis (log2): 0.706
--
SEQUENCE TEXT: MAPRKGSSRVAKTNSLRRRKLASFLKDFDREVEIRIKQIESDRQNLLKEVDNLYNIEILRLPKALREMNWLDYFALGGNKQALEEAATADLDITEINKLTAEAIQTPLKSAKTRKVIQVDEMIVEEEEEEENERKNLQTARVKRCPPSKKRTQSIQGKGKGKRSSRANTVTPAVGRLEVSMVKPTPGLTPRFDSRVFKTPGLRTPAAGERIYNISGNGSPLADSKEIFLTVPVGGGESLRLLASDLQRHSIAQLDPEALGNIKKLSNRLAQICSSIRTHK [CDCA8]
solubility change mitosis (log2): 0.0931
--
SEQUENCE TEXT: MTFQFNFTIEDHLENELTPIRDGALTLDSSKELSVSESQKGEERDRKCSAEQFDLPQDHLWEHKSMENAAPSQDTDSPLSAASSSRNLEPHGKQPSLRAAKEHAMPKDLKKMLENKVIETLPGFQHVKLSVVKTILLKENFPGENIVSKSFSSHSDLITGVYEGGLKIWECTFDLLAYFTKAKVKFAGKKVLDLGCGSGLLGITAFKGGSKEIHFQDYNSMVIDEVTLPNVVANSTLEDEENDVNEPDVKRCRKPKVTQLYKCRFFSGEWSEFCKLVLSSEKLFVKYDLILTSETIYNPDYYSNLHQTFLRLLSKNGRVLLASKAHYFGVGGGVHLFQKFVEERDVFKTRILKIIDEGLKRFIIEITFKFPG [METTL18]
solubility change mitosis (log2): 0.0132
--
SEQUENCE TEXT: MGSQHSAAARPSSCRRKQEDDRDGLLAEREQEEAIAQFPYVEFTGRDSITCLTCQGTGYIPTEQVNELVALIPHSDQRLRPQRTKQYVLLSILLCLLASGLVVFFLFPHSVLVDDDGIKVVKVTFNKQDSLVILTIMATLKIRNSNFYTVAVTSLSSQIQYMNTVVSTYVTTNVSLIPPRSEQLVNFTGKAEMGGPFSYVYFFCTVPEILVHNIVIFMRTSVKISYIGLMTQSSLETHHYVDCGGNSTAI [TMEM106C]
solubility change mitosis (log2): -0.29

Origin of values: the supplement of paper PMC5998384
